Values from patent US11013696B2

test method notes: siRNA encapsulation in lipid nanoparticles (SYBR Gold)
Type: physicochemical
assay context: Table 2; FVII siRNA in LNP with the cationic lipid
Procedure: The lipid nanoparticles (LNPs) were formed by mixing equal volumes of lipids dissolved in alcohol with siRNA dissolved in a citrate buffer by an impinging jet process. […] SYBR Gold flourescence reagent is used for the determination of siRNA encapsulation in the DLP's. […] DLP's samples with and without triton X-100 were excited at 485 nm and flourescence emission is measured at 530 nm. […]
Structures can show the parent of a compound that is named as a salt.
observable: % encapsulation siRNA FVII (%)

>>> endpoint_value("CCCCC/C=C\\C/C=C\\CCCCCCCCOC(=O)OCCC(CCCCCCCC/C=C\\C/C=C\\CCCCC)OC(=O)CCN(C)C (stereo not drawn)")
88.6
>>> endpoint_value("CCCCCCCCCCCCC(CCOC(=O)CCC(OCC(CCC)CCC)OCC(CCC)CCC)OC(=O)OCCCN(C)C (stereo not drawn)")
91.0
>>> endpoint_value("CCCCCCCCCCCCCC(=O)OCC(COC(=O)CCCCCCCCCCCCC)OC(=O)CCC(CCCCCCCCCCCC)OC(=O)OCCCN(C)C (stereo not drawn)")
85.7
>>> endpoint_value("CCCCC/C=C\\C/C=C\\CCCCCCCCC(CCOC(=O)CCCCCCCC(CCCCC)CCCCC)OC(=O)CCCN(C)C (stereo not drawn)")
85.6
>>> endpoint_value("CCCCC/C=C\\C/C=C\\CCCCCCCCC(CCOC(=O)CC(CCCCCCCC)CCCCCCCC)OC(=O)CCCN(C)C (stereo not drawn) [Example 50, formate salt]")
85.3
>>> endpoint_value("CCCCCCCCCCCCC(CCOC(=O)CCCCCC(COC(=O)CCCCCCC)COC(=O)CCCCCCC)OC(=O)OCCCN(CC)CC (stereo not drawn)")
91.7
